# Assay Explanation: self-splicing fitness, log relative to wild type (ln ratio); higher = more splicing; Tetrahymena group I intron in knt gene, E. coli kanamycin selection, DiMSum; sequences stand for … in CUCUCU…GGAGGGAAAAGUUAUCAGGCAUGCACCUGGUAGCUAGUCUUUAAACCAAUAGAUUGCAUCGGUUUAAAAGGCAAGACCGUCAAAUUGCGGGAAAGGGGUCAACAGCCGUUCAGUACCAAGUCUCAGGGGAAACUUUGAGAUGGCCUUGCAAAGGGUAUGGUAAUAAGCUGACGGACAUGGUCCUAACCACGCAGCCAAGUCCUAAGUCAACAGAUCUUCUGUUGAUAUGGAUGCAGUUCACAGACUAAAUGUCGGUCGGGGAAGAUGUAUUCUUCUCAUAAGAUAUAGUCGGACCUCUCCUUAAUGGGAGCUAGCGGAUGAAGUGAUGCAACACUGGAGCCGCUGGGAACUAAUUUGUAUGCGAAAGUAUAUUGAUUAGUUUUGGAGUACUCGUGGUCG;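 note: selection with 25 µg/mL kanamycin versus none on LB agar overnight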
# Settings: 37 °C
Output: class label from self-splicing fitness (ln). Mapping: bucket 1: < -2; bucket 2: ≥ -2 and < -1; bucket 3: ≥ -1

* AGCAAGCAAUAUUACGCGGA | bucket 3
* AUCCAGCAAUAUUACGGGGC | bucket 1
* CGAGAGCAAUAUUACGGCGU | bucket 2
* GACAAGCAAUAUUACGCUCU | bucket 2
* AACCAGCAAUAUUACGCGUU | bucket 2
* UAGCAGCAAUAUUACGAUGU | bucket 1

Exam item: assign `UUAUAGCAAUAUUACGCAGC` to the correct category. bucket 1

Exam item: assign `ACUGAGCAAUAUUACGCUGA` to the correct category. bucket 2

Exam item: assign `CUCGAGCAAUAUUACGUGAG` to the correct category. bucket 1

Exam item: assign `AGAAAGCAAUAUUACGCACG` to the correct category. bucket 3

Exam item: assign `CGCAAGCAAUAUUACGUUUU` to the correct category. bucket 1

Exam item: assign `GUCGAGCAAUAUUACGCACA` to the correct category. bucket 3

Exam item: assign `UUGUAGCAAUAUUACGGAAA` to the correct category. bucket 2

Exam item: assign `UCAAAGCAAUAUUACGCGCU` to the correct category. bucket 1

Exam item: assign `GAGAAGCAAUAUUACGCUGC` to the correct category. bucket 1

Exam item: assign `CGAUAGCAAUAUUACGAGUG` to the correct category. bucket 3

Exam item: assign `UACGAGCAAUAUUACGAAAU` to the correct category. bucket 2

Exam item: assign `UCUCAGCAAUAUUACGUAUC` to the correct category. bucket 2

###

# Assay Explanation: self-splicing fitness, log relative to wild type (ln ratio); higher = more splicing; Tetrahymena group I intron in knt gene, E. coli kanamycin selection, DiMSum; sequences stand for … in CUCUCU…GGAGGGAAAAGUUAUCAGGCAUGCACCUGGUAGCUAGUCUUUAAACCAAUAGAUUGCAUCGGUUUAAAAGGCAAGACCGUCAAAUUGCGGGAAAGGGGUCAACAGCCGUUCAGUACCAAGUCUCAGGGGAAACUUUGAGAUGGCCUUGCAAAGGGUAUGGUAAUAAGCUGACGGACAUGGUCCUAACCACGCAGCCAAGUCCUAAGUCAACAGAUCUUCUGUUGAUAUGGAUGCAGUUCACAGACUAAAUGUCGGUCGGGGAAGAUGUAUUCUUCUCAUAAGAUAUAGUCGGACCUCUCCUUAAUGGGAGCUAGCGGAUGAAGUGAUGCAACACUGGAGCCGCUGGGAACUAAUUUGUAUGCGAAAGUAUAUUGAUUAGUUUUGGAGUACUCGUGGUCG
# Settings: 37 °C
Can you tell me self-splicing fitness (ln) for the items I'm about to list?

Some sequences with known self-splicing fitness (ln) results, for comparison:
- CUGCAGCAAUAUUACGGUGA: -0.923
- UGAAAGCAAUAUUACGCACC: -0.513
- GCCGAGCAAUAUUACGGUUC: -1.79
- GUAUAGCAAUAUUACGACAG: -1.9
- CAAUAGCAAUAUUACGAGAC: -2.1

Could you tell me self-splicing fitness (ln) for each of these sequences? They are listed below.
1. AUGCAGCAAUAUUACGUUUG
2. AACUAGCAAUAUUACGGUCA
3. GAUCAGCAAUAUUACGGAGG
4. UACGAGCAAUAUUACGGCAU
5. AUCUAGCAAUAUUACGCACU
6. UUCAAGCAAUAUUACGAACG
7. CGAAAGCAAUAUUACGCACC
8. CGGCAGCAAUAUUACGACCC

[-1.82, 0.442, -1.82, -1.25, 0.0807, -2.46, -0.396, 0.752]
